The reported measurements were obtained from the RNAGym collection of RNA variant scans (doi:10.1101/gad.245936.114).

B1: tRNA (parent)
chain: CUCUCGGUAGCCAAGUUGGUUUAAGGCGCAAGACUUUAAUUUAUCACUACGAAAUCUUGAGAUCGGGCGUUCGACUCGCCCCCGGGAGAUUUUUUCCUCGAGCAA

Variants of: B1
TEST: nonsense suppression (GFP-seq) (ratio to wild type); higher = more function; SUP4oc tRNA, yeast GFP reporter sort-seq
This sample holds only a part of the variants without activity.
MEASURE: nonsense suppression

Study these solved cases before continuing.
{"columns": ["MUTATION_ANNOTATION", "nonsense suppression"],
 "data": [
  ["A54C U71C", 0.0406],
  ["G32U U71C G84A", "≤ 0.026"],
  ["C27G G66U", "≤ 0.026"],
  ["U2C C5A", "≤ 0.026"],
  ["C5U C80G", "≤ 0.026"],
  ["A24C G25C A62U", "≤ 0.026"],
  ["G7U A87U", "≤ 0.026"],
  ["C5U G6U G84C", "≤ 0.026"],
  ["A74G G78C", 0.0343],
  ["A9U A13U A24G", 0.212]
]}

q: # lookup: nonsense suppression of C5G G78U
a: 0.0283

q: GET /values?readout=nonsense suppression&item= C12A A33G G67U
a: ≤ 0.026

q: Which nonsense suppression is listed for U22G A54U G88U ?
a: ≤ 0.026

q: Would you mind telling me what nonsense suppression value was observed for C29U G67C ?
a: ≤ 0.026
